Reference source: paper PMC11375963

- assay explanation: Cytotoxicity
- Format: cell-based
- reported conditions: mouse, BV2 microglial cells
reported property: viability at 24 h, 80 µM (%)
The figure you give is taken to be in %; do not add the unit.

Request: Look at this molecule and give its reported viability at 24 h, 80 µM. O=C(O)c1ccc(CO)cc1 [Compound 15, 4-hydroxymethyl benzoic acid]
Response: 104

Request: Now try COC1=CC(=O)c2c(ccc3cc(OC)c(OC)c(OC)c23)C1=O .
Response: 73.7

Request: Now try COc1cc2c(ccc3cc(OC)c(O)c(OC)c32)cc1O .
Response: 94.4

---

Field: viability at 24 h, 40 µM. Provide a value for each of the molecules that follow.
- assay explanation: Cytotoxicity
- Format: cell-based
- reported conditions: mouse, BV2 microglial cells
The figure you give is taken to be in %; do not add the unit.

Request: Look at this molecule and give its reported viability at 24 h, 40 µM. COc1cc(/C=C/C(=O)NCCc2ccc(O)cc2)ccc1O [Compound 17, N-trans-feruloyl tyramine]
Response: 101

Request: Now try COc1cc(C(=O)O)ccc1O [Compound 11, vanillic acid] .
Response: 94.8

Request: Now try O=C(O)c1ccc(O)cc1 [Compound 10, p-hydroxybenzoic acid] .
Response: 95.8

Request: Now try COc1cc(O)c(Cc2ccc(O)cc2)c2c1-c1ccc(O)cc1CC2 [Compound 14] .
Response: 65.9

Request: Now try COc1cc(O)cc2c1-c1c(O)cccc1CC2 [Compound 7, hircinol] .
Response: 111

Request: Now try O=Cc1ccc(O)cc1 [Compound 5, p-hydroxybenzaldehyde] .
Response: 101

Request: Now try COc1ccc2c(c1O)CCc1cc(O)cc(OC)c1-2 [Compound 4] .
Response: 95.3

Request: Now try O=C(O)c1ccc(CO)cc1 [Compound 15, 4-hydroxymethyl benzoic acid] .
Response: 108

Request: Now try COc1cc2ccc3cccc(O)c3c2c(OC)c1O [Compound 9, bulbophyllanthrin] .
Response: 105

---

Field: viability at 24 h, 10 µM. Provide a value for each of the compounds that follow.
- assay explanation: Cytotoxicity
- Assay type: cell-based
- reported conditions: mouse, BV2 microglial cells
The figure you give is taken to be in %; do not add the unit.

Request: Look at this compound and give its reported viability at 24 h, 10 µM. O=Cc1ccc(O)cc1 [Compound 5, p-hydroxybenzaldehyde]
Response: 104

Request: Now try COc1cc(/C=C/C(=O)NCCc2ccc(O)cc2)ccc1O [Compound 17, N-trans-feruloyl tyramine] .
Response: 97.3

Request: Now try COc1cc2c(ccc3cc(OC)c(O)c(OC)c32)cc1O .
Response: 100

Request: Now try COC1=CC(=O)c2c(ccc3cc(OC)c(OC)c(OC)c23)C1=O .
Response: 102

Request: Now try COc1ccc2c(c1O)CCc1cc(O)cc(OC)c1-2 .
Response: 99.3

---

- assay explanation: Cytotoxicity
- Format: cell-based
- reported conditions: mouse, BV2 microglial cells
viability at 24 h, 80 µM strictly less than 80% = Y. Otherwise N.

Request: Please indicate whether the reported viability at 24 h, 80 µM of COc1cc(C(=O)O)ccc1O is strictly below 80%.
Response: N

Request: Now try COc1cc(/C=C/C(=O)NCCc2ccc(O)cc2)ccc1O [Compound 17, N-trans-feruloyl tyramine] .
Response: N

Request: Now try COc1ccc2c(c1O)CCc1cc(O)cc(OC)c1-2 .
Response: Y

Request: Now try O=C(O)c1ccc(O)cc1 [Compound 10, p-hydroxybenzoic acid] .
Response: N

Request: Now try COc1cc(O)c(Cc2ccc(O)cc2)c2c1-c1ccc(O)cc1CC2 .
Response: Y

Request: Now try COc1cc2ccc3cccc(O)c3c2c(OC)c1O .
Response: N

Request: Now try COC1=CC(=O)c2ccc3cc(OC)c(OC)c(OC)c3c2C1=O .
Response: Y

Request: Now try COc1cc(O)cc2c1-c1c(O)cccc1CC2 .
Response: N

Request: Now try O=Cc1ccc(O)cc1 [Compound 5, p-hydroxybenzaldehyde] .
Response: N
